Every entry's value here was drawn from PubChem BioAssay (NCI).

System: HT29 colon
Experiment: NCI tumour cell line growth inhibition, 48 h
EXPERIMENTAL ENDPOINT: TGI

Field: example entries. Status: answers known.
INSERT INTO results (compound, experimental_endpoint, observed_value) VALUES
  ('Nc1nc2ncn(CC(O)COC(=O)c3ccccc3)c2c(=O)[nH]1 (centres undefined)', 'TGI', '> 100 µM'),
  ('Cc1cc2c(cc1Cl)SC(C(=O)c1ccc(Cl)c(Cl)c1)NS2(=O)=O (centres undefined)', 'TGI', '> 100 µM');

# ---- query compound ----
Fill in: TGI of COC(=O)c1ccccc1C1=C([N+](=O)[O-])C(c2cccc(Br)c2)C(C#N)=C(N)O1 (centres undefined) is ___ > 100 µM
